system: cIAP2-BIR3 (Homo sapiens, UniProt Q13489)
Sequence (Q13489 243-333): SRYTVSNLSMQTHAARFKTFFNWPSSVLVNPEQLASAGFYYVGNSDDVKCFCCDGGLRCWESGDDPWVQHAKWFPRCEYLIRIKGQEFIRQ
protocol_summary: FP competition assay, displacement of SMAC-rhodamine
So I've got a bunch of molecules here, and I need their log10(Ki) values.
Please interpret these as log10 of Ki where Ki is in nM.

Solved cases below.
{"columns": ["molecule", "result_number"],
 "data": [
  ["CN[C@@H](C)C(=O)N[C@@H](CCC(=O)O)C(=O)N[C@@H](C)C(=O)NNc1ccccc1 [compound 29]", 4.36],
  ["CC(C)[C@H](NC(=O)[C@@H](N)CO)C(=O)N[C@@H](C)C(=O)Nc1cccc2ccccc12 [compound 19]", 4.24],
  ["CN[C@@H](C)C(=O)N[C@H](C(=O)N[C@@H](CCCN)C(=O)NNc1ccccc1)C(C)C [compound 32]", 3.34]
]}

Required: log10(Ki), one value per molecule below.
1. CN[C@@H](C)C(=O)N[C@@H](CCC(N)=O)C(=O)N1CCC[C@H]1C(=O)N[C@@H]1CCCc2ccccc21 [compound 8]
2. CN[C@@H](C)C(=O)N[C@H](C(=O)N[C@@H](CCCCN)C(=O)NNc1ccccc1)C(C)C [compound 35]
3. CN[C@@H](C)C(=O)N[C@H](C(=O)N[C@@H](C)C(=O)NNc1ccccc1)C(C)C [compound 23]
4. CN[C@@H](C)C(=O)N[C@H](C(=O)N1CCC[C@@H]1C(=O)Nc1cccc2ccccc12)C(C)C [compound 16]
5. CN[C@@H](C)C(=O)N[C@H](C(=O)N1CCC[C@H]1C(=O)N[C@@H]1CCCc2ccccc21)C(C)C [compound 1]
6. CN[C@@H](C)C(=O)N[C@H](C(=O)N[C@@H](CCCNC(=O)OCc1ccccc1)C(=O)NNc1ccccc1)C(C)C [compound 31]

*A*
1: 2.18; 2: 3.13; 3: 3.92; 4: 2.30; 5: 1.60; 6: 3.11

// for each molecule below, give its log10(Ki)
1. CC(C)[C@H](NC(=O)[C@H](C)N)C(=O)N[C@@H](CCCNC(=O)OCc1ccccc1)C(=O)Nc1cccc2ccccc12 [compound 21]
2. CC[C@H](N)C(=O)N[C@H](C(=O)N[C@@H](C)C(=O)Nc1cccc2ccccc12)C(C)C [compound 20]
3. CC[C@H](C)[C@H](NC(=O)[C@H](C)NC)C(=O)N1CCC[C@H]1C(=O)N[C@@H]1CCCc2ccccc21 [compound 2]
4. CN[C@@H](C)C(=O)N[C@H](C(=O)N1CCC[C@H]1C(=O)NNc1ccccc1)C(C)C [compound 22]

*A*
1. 3.00
2. 3.72
3. 1.95
4. 2.75

====

system: cIAP1-BIR2 (Homo sapiens, UniProt Q13490)
Sequence (Q13490 144-260): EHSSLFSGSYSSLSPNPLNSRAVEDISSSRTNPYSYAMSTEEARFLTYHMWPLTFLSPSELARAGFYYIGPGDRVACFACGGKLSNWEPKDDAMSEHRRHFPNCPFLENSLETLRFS
protocol_summary: FP competition assay, displacement of SMAC-rhodamine
value_kind: log10 of Ki (log10 of the value in µM)
Lab note - Ki converted to log10 from values in µM.

{"columns": ["molecule", "log10 of Ki"],
 "data": [
  ["CN[C@@H](C)C(=O)N[C@@H](CC(=O)OC)C(=O)N1CCC[C@H]1C(=O)N[C@@H]1CCCc2ccccc21 [compound 6]", 0.33],
  ["CC(C)[C@H](NC(=O)[C@H](C)N)C(=O)N1CCC[C@H]1C(=O)NNc1ccccc1 [compound 36]", 0.79]
]}

Give one value of log10 of Ki per listed molecule.
1. CN[C@@H](C)C(=O)N[C@H](C(=O)N[C@@H](CCCNC(=O)OCc1ccccc1)C(=O)N[C@@H]1CCCc2ccccc21)C(C)C [compound 10]
2. CN[C@@H](C)C(=O)N[C@H](C(=O)N[C@@H](CCCN=C(N)N)C(=O)NNc1ccccc1)C(C)C [compound 28]
3. CN[C@@H](C)C(=O)N[C@@H](CC(C)C)C(=O)N1CCC[C@H]1C(=O)N[C@@H]1CCCc2ccccc21 [compound 5]
4. CN[C@@H](C)C(=O)N[C@H](C(=O)N[C@@H](C)C(=O)NNc1ccccc1)C(C)C [compound 23]
5. CC(C)[C@H](NC(=O)[C@@H](N)CO)C(=O)N[C@@H](C)C(=O)Nc1cccc2ccccc12 [compound 19]
6. CN[C@@H](C)C(=O)N[C@@H](CCC(N)=O)C(=O)N1CCC[C@H]1C(=O)N[C@@H]1CCCc2ccccc21 [compound 8]
7. CC(C)[C@H](NC(=O)[C@H](C)N)C(=O)N[C@@H](CCCNC(=O)OCc1ccccc1)C(=O)Nc1cccc2ccccc12 [compound 21]
8. CN[C@@H](C)C(=O)N[C@@H](CCC(=O)O)C(=O)N[C@@H](C)C(=O)NNc1ccccc1 [compound 29]

*A*
[0.15, 0.64, 0.12, 0.87, 0.92, 0.10, 0.44, 0.88]

Each of the following entries comes with a recorded value; kindly state log10 of Ki for each.
1. CC[C@H](N)C(=O)N[C@H](C(=O)N[C@@H](C)C(=O)Nc1cccc2ccccc12)C(C)C [compound 20]
2. CN[C@@H](C)C(=O)N[C@H](C(=O)N1CCC[C@@H]1C(=O)Nc1cccc2ccccc12)C(C)C [compound 16]

*A*
1. 1.40
2. 0.24

====

system: cIAP2-BIR2 (Homo sapiens)
Sequence (Q13489 129-246): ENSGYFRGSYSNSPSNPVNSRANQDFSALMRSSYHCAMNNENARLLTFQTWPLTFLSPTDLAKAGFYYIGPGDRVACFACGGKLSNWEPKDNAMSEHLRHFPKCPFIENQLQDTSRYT
protocol_summary: FP competition assay, displacement of SMAC-rhodamine
No end group written: not given here.
value_kind: pKi
One number for each entry, as −log10 of the molar value.

*Q* Bench note: what pKi did AVPIAQK-NH2 [SMAC-7-mer, AVPIAQK, reference compound] show?
*A* 4.58

====

system: cIAP1-BIR3 (Homo sapiens, UniProt Q13490)
Sequence (Q13490 257-356): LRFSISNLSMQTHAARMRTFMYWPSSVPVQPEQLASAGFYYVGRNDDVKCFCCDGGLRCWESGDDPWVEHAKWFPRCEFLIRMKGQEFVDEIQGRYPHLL
protocol_summary: FP competition assay, displacement of SMAC-rhodamine
study_conditions: cIAP1 BIR3 Ki, 25 mM Hepes pH 7.5, 1 mM TCEP, 0.005% Tween 20, 20 nM SMAC-rhodamine, 40 mM β-glycerol phosphate, ~50 nM protein; Ki calculated from IC50
pKi: −log10 of the molar value.
Class field: derived from pKi; ranges lowest: < 6; middle: ≥ 6 and < 7; highest: ≥ 7

Please review the entries below; each comes with its answer.
{"columns": ["compound", "label_class"],
 "data": [
  ["CN[C@@H](C)C(=O)N[C@H](C(=O)N[C@@H](CO)C(=O)N[C@@H]1CCCc2ccccc21)C(C)C", "middle"],
  ["CN[C@@H](C)C(=O)N[C@@H](CC(=O)O)C(=O)N1CCC[C@H]1C(=O)N[C@@H]1CCCc2ccccc21", "lowest"],
  ["CN[C@@H](C)C(=O)N[C@H](C(=O)N[C@@H](CCCCN)C(=O)NNc1ccccc1)C(C)C", "lowest"],
  ["CN[C@@H](C)C(=O)N[C@H](C(=O)N[C@@H](CCCN)C(=O)NNc1ccccc1)C(C)C", "lowest"],
  ["CC(C)[C@H](NC(=O)[C@H](C)N)C(=O)N1CCC[C@H]1C(=O)NNc1ccccc1", "middle"],
  ["CN[C@@H](C)C(=O)N[C@H](C(=O)N1CSC[C@@H]1C(=O)NC1CCCc2ccccc21)C(C)C (stereo partly shown) [compound 38, reference compound]", "highest"],
  ["CN[C@@H](C)C(=O)N[C@H](C(=O)N1CCC[C@@H]1C(=O)N[C@H]1CCOc2ccccc21)C(C)C [compound 37, reference compound]", "highest"]
]}

From here, focus on the item given below.
*Q* Categorize the following entry: CN[C@@H](C)C(=O)N[C@H](C(=O)N[C@@H](CCCNC(N)=N[N+](=O)[O-])C(=O)N[C@@H]1CCCc2ccccc21)C(C)C
*A* highest

====

system: cIAP1-BIR3 (Homo sapiens, UniProt Q13490)
protocol_summary: FP competition assay, displacement of SMAC-rhodamine
study_conditions: Ki against cIAP1-BIR3, FP assay
value_kind: Ki (nM)
Numbers only, in nM.

*Q* Entry CN[C@@H](C)C(=O)N[C@H](C(=O)N1CCC[C@H]1C(=O)N[C@@H]1CCCc2ccccc21)C(C)C [compound 1] : reported Ki = ?
*A* 24

====

system: cIAP2-BIR2 (Homo sapiens)
protocol_summary: FP competition assay, displacement of SMAC-rhodamine
value_kind: pKi
Give bare numbers, as −log10 of the molar value.

Here's what some known entries look like.
{"columns": ["smiles", "pKi"],
 "data": [
  ["CN[C@@H](C)C(=O)N[C@@H](CC(C)C)C(=O)N1CCC[C@H]1C(=O)N[C@@H]1CCCc2ccccc21", 5.36],
  ["CN[C@@H](C)C(=O)N[C@H](C(=O)N1CCC[C@H]1C(=O)N[C@@H]1CCCc2ccccc21)C(C)C", 5.63],
  ["CN[C@@H](C)C(=O)N[C@@H](CC(=O)OC)C(=O)N1CCC[C@H]1C(=O)N[C@@H]1CCCc2ccccc21", 5.20],
  ["CC[C@H](NC(=O)[C@H](C)NC)C(=O)N1CCC[C@H]1C(=O)N[C@@H]1CCCc2ccccc21", 5.28],
  ["CN[C@@H](C)C(=O)N[C@H](C(=O)N[C@@H](CCCNC(=O)OCc1ccccc1)C(=O)NNc1ccccc1)C(C)C", 5.53]
]}

Please state, for each entry, its recorded pKi.
1. CC[C@H](C)[C@H](NC(=O)[C@H](C)NC)C(=O)N1CCC[C@H]1C(=O)N[C@@H]1CCCc2ccccc21
2. CN[C@@H](C)C(=O)N[C@H](C(=O)N[C@@H](CO)C(=O)N[C@@H]1CCCc2ccccc21)C(C)C

*A*
1: 5.68; 2: 5.17

The reported numbers originate from paper PMC5019375.
